System Tested: inositol monophosphatase (IMPase) (Homo sapiens, UniProt P29218)
Sequence (P29218 whole entry): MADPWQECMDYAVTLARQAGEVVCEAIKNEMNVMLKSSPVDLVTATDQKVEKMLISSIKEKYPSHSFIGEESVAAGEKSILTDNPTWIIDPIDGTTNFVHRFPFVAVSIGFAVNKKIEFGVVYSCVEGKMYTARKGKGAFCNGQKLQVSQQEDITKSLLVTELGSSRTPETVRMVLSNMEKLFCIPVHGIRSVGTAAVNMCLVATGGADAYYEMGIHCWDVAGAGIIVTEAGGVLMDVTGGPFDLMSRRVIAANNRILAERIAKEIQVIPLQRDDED
Experimental Details: electrospray mass spectrometry of the covalent complex
pIC50: −log10 of the molar value.

Cpd Smiles | pIC50
O=c1c2ccccc2[se]n1-c1ccccc1 | 5.82
